- TARGET SYSTEM: cGMP-inhibited 3',5'-cyclic phosphodiesterase 3A (Homo sapiens, UniProt Q14432); also: assay procedure not described here
- Sequence (Q14432 whole entry): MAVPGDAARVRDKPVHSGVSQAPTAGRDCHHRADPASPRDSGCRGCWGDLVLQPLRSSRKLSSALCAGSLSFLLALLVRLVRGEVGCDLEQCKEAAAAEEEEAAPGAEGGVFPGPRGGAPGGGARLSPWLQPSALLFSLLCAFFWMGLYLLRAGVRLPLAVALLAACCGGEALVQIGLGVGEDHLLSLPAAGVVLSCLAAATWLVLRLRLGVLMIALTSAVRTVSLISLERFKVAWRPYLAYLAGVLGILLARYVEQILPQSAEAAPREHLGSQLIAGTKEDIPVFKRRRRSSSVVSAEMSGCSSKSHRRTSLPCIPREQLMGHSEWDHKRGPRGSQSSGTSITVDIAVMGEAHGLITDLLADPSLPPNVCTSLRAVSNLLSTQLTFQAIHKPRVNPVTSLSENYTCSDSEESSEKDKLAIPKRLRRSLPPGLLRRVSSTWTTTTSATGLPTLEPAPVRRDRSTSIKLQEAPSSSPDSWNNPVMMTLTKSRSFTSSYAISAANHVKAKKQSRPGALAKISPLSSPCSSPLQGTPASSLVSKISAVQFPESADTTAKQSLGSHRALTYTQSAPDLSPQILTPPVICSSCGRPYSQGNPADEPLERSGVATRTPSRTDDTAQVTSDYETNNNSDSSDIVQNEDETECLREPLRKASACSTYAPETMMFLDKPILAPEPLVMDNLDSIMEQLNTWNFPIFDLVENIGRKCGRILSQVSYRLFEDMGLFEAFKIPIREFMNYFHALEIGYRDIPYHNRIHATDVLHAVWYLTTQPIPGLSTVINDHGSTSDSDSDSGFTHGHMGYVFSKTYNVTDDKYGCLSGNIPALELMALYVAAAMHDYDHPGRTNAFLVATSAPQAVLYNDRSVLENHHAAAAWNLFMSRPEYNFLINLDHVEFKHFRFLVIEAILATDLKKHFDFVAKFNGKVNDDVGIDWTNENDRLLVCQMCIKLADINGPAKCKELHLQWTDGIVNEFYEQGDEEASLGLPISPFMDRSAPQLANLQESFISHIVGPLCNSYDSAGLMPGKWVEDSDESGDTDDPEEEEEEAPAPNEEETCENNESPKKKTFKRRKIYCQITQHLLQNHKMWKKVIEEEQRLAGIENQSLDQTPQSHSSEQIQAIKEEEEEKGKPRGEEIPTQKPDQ
- Format: functional
Recorded measurements of AC50, one per entry

Examples with their reported AC50 follow.
| COMPOUND | MEAS VALUE |
| --- | --- |
| OC(CNCC(O)C1CCc2cc(F)ccc2O1)C1CCc2cc(F)ccc2O1 (stereo unspecified) [NEBIVOLOL] | > 30 µM |
| Cc1cc(O)c(C(=O)N[C@@H](C(=O)N[C@@H]2C(=O)N3C(C(=O)O)=C(CSc4nnnn4C)CS[C@H]23)c2ccc(O)cc2)cn1 [CEFPIRAMIDE] | > 30 µM |
| CCOC(=O)OC(C)OC1=C(C(=O)Nc2ccccn2)N(C)S(=O)(=O)c2ccccc21 (stereo unspecified) [AMPIROXICAM] | > 30 µM |
| Cc1cccc(C(C)c2cnc[nH]2)c1C (stereo unspecified) [MEDETOMIDINE] | > 30 µM |
| CC(C)(C)c1cc(C(C)(C)C)c(NC(=O)c2c[nH]c3ccccc3c2=O)cc1O [IVACAFTOR] | > 30 µM |

# next compound below
### Prompt Please look up its AC50: CO[C@H]1C[C@@H]2CC[C@@H](C)[C@@](O)(O2)C(=O)C(=O)N2CCCC[C@H]2C(=O)O[C@H]([C@H](C)C[C@@H]2CC[C@@H](O)[C@H](OC)C2)CC(=O)[C@H](C)/C=C(\C)[C@@H](O)[C@@H](OC)C(=O)[C@H](C)C[C@H](C)/C=C/C=C/C=C/1C [SIROLIMUS]
### Response > 30 µM
